Measured exchange constant by item
target: Hsp26 FRET complex (5 µM LYI-labeled and 5 µM AIAS-labeled Hsp26 S5C, pre-formed at 40 °C) (S. cerevisiae) (UniProt P15992); assay: FRET or BRET; subunit exchange: unlabeled Hsp26 in 39-fold molar excess added to the pre-formed FRET complex, 40 °C, decrease of acceptor fluorescence at 520 nm for 1500 s, exponential fit, kexchange = 1/t1
Just the number please, in s⁻¹, no unit attached.

Consider the following illustrative entries.
- binder: "Hsp26 S208E/S211E (natural protein, S. cerevisiae, Hsp26 of S. cerevisiae, phospho-mimetic double mutant in pQE60::HSP26; also called CTR double mutant; source: E. coli HB101, purified (Q-Sepharose, Superdex200, Resource Q)) MGSFNSPFFDFFDNINNEVDAFNRLLGEGGLRGYAPRRQLANTPAKDSTGKEVARPNNYAGALYDPRDETLDDWFDNDLSLFPSGFGFPRSVAVPVDILDHDNNYELKVVVPGVKSKKDIDIEYHQNKNQILVSGEIPSTLNEESKDKVKVKESSSGKFKRVITLPDYPGVDADNIKADYANGVLTLTVPKLKPQKDGKNHVKKIEVSEQEEWGN"
  exchange constant [s⁻¹]: 0.0036
- binder: "Hsp26 T163E (natural protein, S. cerevisiae, Hsp26 of S. cerevisiae, phospho-mimetic mutant in pQE60::HSP26; source: E. coli HB101, purified (Q-Sepharose, Superdex200, Resource Q)) MGSFNSPFFDFFDNINNEVDAFNRLLGEGGLRGYAPRRQLANTPAKDSTGKEVARPNNYAGALYDPRDETLDDWFDNDLSLFPSGFGFPRSVAVPVDILDHDNNYELKVVVPGVKSKKDIDIEYHQNKNQILVSGEIPSTLNEESKDKVKVKESSSGKFKRVIELPDYPGVDADNIKADYANGVLTLTVPKLKPQKDGKNHVKKIEVSSQESWGN"
  exchange constant [s⁻¹]: 0.0036
- binder: "Hsp26 S90E (natural protein, S. cerevisiae, Hsp26 of S. cerevisiae, phospho-mimetic mutant in pQE60::HSP26; source: E. coli HB101, purified (Q-Sepharose, Superdex200, Resource Q)) MGSFNSPFFDFFDNINNEVDAFNRLLGEGGLRGYAPRRQLANTPAKDSTGKEVARPNNYAGALYDPRDETLDDWFDNDLSLFPSGFGFPREVAVPVDILDHDNNYELKVVVPGVKSKKDIDIEYHQNKNQILVSGEIPSTLNEESKDKVKVKESSSGKFKRVITLPDYPGVDADNIKADYANGVLTLTVPKLKPQKDGKNHVKKIEVSSQESWGN"
  exchange constant [s⁻¹]: 0.004
- binder: "Hsp26 S144E (natural protein, S. cerevisiae, Hsp26 of S. cerevisiae, phospho-mimetic mutant in pQE60::HSP26; source: E. coli HB101, purified (Q-Sepharose, Superdex200, Resource Q)) MGSFNSPFFDFFDNINNEVDAFNRLLGEGGLRGYAPRRQLANTPAKDSTGKEVARPNNYAGALYDPRDETLDDWFDNDLSLFPSGFGFPRSVAVPVDILDHDNNYELKVVVPGVKSKKDIDIEYHQNKNQILVSGEIPSTLNEEEKDKVKVKESSSGKFKRVITLPDYPGVDADNIKADYANGVLTLTVPKLKPQKDGKNHVKKIEVSSQESWGN"
  exchange constant [s⁻¹]: 0.0032
- binder: "Hsp26 S47E/T48E (natural protein, S. cerevisiae, Hsp26 of S. cerevisiae, phospho-mimetic double mutant in pQE60::HSP26; source: E. coli HB101, purified (Q-Sepharose, Superdex200, Resource Q)) MGSFNSPFFDFFDNINNEVDAFNRLLGEGGLRGYAPRRQLANTPAKDEEGKEVARPNNYAGALYDPRDETLDDWFDNDLSLFPSGFGFPRSVAVPVDILDHDNNYELKVVVPGVKSKKDIDIEYHQNKNQILVSGEIPSTLNEESKDKVKVKESSSGKFKRVITLPDYPGVDADNIKADYANGVLTLTVPKLKPQKDGKNHVKKIEVSSQESWGN"
  exchange constant [s⁻¹]: 0.004

Ask | Report exchange constant for Hsp26 wild-type (WT) protein, recombinant (natural protein, S. cerevisiae, Hsp26, small heat shock protein of S. cerevisiae; HSP26 cloned into pQE60 with NcoI and HindIII, which adds a glycine after the start methionine; Forms an ensemble of oligomers, predominantly a 40mer; also called Hsp26 WT; source: E. coli HB101, purified (Q-Sepharose, Superdex200, Resource Q)) MGSFNSPFFDFFDNINNEVDAFNRLLGEGGLRGYAPRRQLANTPAKDSTGKEVARPNNYAGALYDPRDETLDDWFDNDLSLFPSGFGFPRSVAVPVDILDHDNNYELKVVVPGVKSKKDIDIEYHQNKNQILVSGEIPSTLNEESKDKVKVKESSSGKFKRVITLPDYPGVDADNIKADYANGVLTLTVPKLKPQKDGKNHVKKIEVSSQESWGN please.
Reply | 0.0032
